This collection of values is drawn from patent US11021444B2.

Biological target: recombinant RSV complex (Human respiratory syncytial virus A)
Sequence (P28887 whole entry): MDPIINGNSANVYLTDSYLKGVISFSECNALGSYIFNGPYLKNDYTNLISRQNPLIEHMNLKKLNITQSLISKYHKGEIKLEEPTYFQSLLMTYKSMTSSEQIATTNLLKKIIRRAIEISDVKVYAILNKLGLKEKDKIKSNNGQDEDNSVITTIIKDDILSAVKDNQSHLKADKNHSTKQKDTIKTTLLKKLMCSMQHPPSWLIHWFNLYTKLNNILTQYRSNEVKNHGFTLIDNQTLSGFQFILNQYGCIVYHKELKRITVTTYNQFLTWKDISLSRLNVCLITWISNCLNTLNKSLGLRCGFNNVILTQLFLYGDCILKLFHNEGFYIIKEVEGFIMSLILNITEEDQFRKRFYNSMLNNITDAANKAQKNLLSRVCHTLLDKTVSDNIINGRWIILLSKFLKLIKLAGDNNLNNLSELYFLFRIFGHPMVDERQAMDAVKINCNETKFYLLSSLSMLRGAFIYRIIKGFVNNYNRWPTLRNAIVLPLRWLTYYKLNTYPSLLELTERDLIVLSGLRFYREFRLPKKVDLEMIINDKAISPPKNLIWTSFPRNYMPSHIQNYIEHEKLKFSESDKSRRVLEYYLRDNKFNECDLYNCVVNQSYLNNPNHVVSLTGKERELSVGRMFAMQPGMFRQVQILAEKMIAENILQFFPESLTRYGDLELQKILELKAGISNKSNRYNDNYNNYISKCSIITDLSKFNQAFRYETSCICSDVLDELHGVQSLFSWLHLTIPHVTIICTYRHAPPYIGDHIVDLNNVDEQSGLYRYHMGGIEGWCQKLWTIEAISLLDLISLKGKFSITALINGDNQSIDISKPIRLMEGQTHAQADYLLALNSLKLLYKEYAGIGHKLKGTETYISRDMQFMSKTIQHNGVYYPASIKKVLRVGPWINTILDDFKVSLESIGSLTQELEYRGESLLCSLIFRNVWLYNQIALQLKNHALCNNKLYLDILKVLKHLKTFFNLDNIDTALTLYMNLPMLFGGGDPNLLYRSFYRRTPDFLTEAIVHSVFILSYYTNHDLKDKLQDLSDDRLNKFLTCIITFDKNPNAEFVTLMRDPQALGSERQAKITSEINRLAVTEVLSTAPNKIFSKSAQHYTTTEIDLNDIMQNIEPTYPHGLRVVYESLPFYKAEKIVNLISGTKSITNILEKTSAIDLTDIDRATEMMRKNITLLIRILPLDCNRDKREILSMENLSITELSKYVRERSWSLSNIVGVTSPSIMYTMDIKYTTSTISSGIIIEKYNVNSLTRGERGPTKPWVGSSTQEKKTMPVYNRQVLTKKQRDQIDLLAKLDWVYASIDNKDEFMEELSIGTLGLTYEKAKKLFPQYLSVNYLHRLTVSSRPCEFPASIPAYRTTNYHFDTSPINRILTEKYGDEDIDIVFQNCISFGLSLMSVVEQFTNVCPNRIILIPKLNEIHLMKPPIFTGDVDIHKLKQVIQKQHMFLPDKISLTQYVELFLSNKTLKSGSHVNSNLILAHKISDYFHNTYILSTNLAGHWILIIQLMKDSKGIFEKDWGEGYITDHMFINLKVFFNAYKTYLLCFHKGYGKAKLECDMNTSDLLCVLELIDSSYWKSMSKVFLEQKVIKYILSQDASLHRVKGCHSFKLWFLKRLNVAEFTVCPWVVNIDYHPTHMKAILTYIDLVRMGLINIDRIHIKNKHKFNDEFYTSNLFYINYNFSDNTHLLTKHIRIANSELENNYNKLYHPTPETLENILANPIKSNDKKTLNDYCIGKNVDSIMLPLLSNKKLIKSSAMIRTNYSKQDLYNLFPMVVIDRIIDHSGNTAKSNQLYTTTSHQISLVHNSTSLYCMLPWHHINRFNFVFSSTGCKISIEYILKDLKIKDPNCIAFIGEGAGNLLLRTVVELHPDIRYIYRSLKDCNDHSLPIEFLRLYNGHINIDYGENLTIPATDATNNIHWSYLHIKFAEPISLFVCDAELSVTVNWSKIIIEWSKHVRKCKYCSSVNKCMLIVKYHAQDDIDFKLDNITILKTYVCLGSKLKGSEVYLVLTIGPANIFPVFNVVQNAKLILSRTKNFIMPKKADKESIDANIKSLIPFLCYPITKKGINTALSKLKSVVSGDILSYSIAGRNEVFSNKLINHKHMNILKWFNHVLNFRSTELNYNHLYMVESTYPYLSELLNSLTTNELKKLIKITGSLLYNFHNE
Sequence (P03421 whole entry, further chain): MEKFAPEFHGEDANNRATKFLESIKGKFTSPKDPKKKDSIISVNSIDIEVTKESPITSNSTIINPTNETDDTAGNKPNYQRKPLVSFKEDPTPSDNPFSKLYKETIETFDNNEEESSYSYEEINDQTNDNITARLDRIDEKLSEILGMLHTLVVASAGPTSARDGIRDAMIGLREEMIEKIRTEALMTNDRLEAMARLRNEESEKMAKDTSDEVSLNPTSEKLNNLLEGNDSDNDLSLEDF
Test: RSV Polymerase Inhibition Assay
Type: biochemical
Protocol: Standard RSV polymerase assays were conducted in the presence of 10 nM recombinant RSV complex in a reaction buffer containing Tris-HCl pH7.5, 6 mM MgCl2, and other additives and substrates including RNA oligonucleotides and radionucleotides. Standard reactions were incubated in 96-well plate format for 2 h at 30° C., in the presence of increasing concentration of inhibitor. The reaction was stopped with 90 μL of 0.1M EDTA, and the reaction product was transferred to a “reading” 96-well plate. […]
pIC50: −log10 of the molar value.
REPORTED_PROPERTY: pIC50

Before answering, review these 5 worked examples.
| COMPOUND | STUDY_SYSTEM | VAL |
| --- | --- | --- |
| COc1cc(C(=O)NCC(O)(c2cc(C(C)(C)NC(=O)CN)cc(-c3ccc(F)c(Cl)c3)n2)C(F)(F)F)ccc1OC1CC1 (stereo not drawn) [Compound 497] | recombinant RSV complex (Human respiratory syncytial virus A) | > 6.00 |
| COc1cc(C(=O)NCC(O)(c2ccc(OC)c(-c3ccc(F)c(Cl)c3)n2)C(F)(F)F)ccc1OC1CC1 (single isomer, unassigned) [Compound 247] | recombinant RSV complex (Human respiratory syncytial virus A) | > 5.00 |
| CC(C)(N)c1cc(-c2ccc(F)c(Cl)c2)nc(C(O)(CNC(=O)c2ccc3c(c2)OCCO3)C(F)(F)F)c1 (stereo not drawn) [Compound 273] | recombinant RSV complex (Human respiratory syncytial virus A) | > 6.00 |
| COc1cc(C(=O)NCC(O)(c2cc3c(c(-c4ccc(F)c(Cl)c4)n2)OCC3C)C2CC2)ccc1OCCO (stereo not drawn) [Compound 308] | recombinant RSV complex (Human respiratory syncytial virus A) | > 6.00 |
| COc1cc(C(=O)NCC(O)(CO)c2cc3c(c(-c4ccc(F)c(Cl)c4)n2)OCC3(C)C)cc2cccnc12 (stereo not drawn) [Compound 221] | recombinant RSV complex (Human respiratory syncytial virus A) | > 6.00 |

Would you mind listing pIC50 for each of the following compounds?
1. COc1ccc(C(=O)NCC(C)(O)c2ccc(OC)c(-c3ccc(F)c(Cl)c3)n2)cc1 (stereo not drawn) [Compound 174]
2. COc1cc(C(=O)NCC(C)(O)c2cc3cc[nH]c3c(-c3ccc(F)c(Cl)c3)n2)ccc1OCCF (stereo not drawn) [Compound 290]
3. COc1cc(C(=O)NCC(O)(c2cc(C3(C)CN(C(C)C)C3)cc(-c3ccc(F)cc3)n2)C(F)(F)F)ccc1OCCO (stereo not drawn) [Compound 584]
4. COCC(C)(NC(C)=O)c1cc(-c2ccc(F)c(Cl)c2)nc(C(O)(CNC(=O)c2ccc(OC3CC3)c(OC)c2)C(F)(F)F)c1 (stereo not drawn) [Compound 537]
5. COc1cc(C(=O)NCC(O)(CN(CCN)CC(=O)O)c2ccc(OC)c(-c3ccc(F)c(Cl)c3)n2)ccc1OCCO (stereo not drawn) [Compound 183]

1. > 5.00
2. > 5.00
3. > 6.00
4. > 6.00
5. > 6.00

Parameter requested: pIC50. Apply to each item below.
1. Cc1ncc(C(=O)NCC(O)(c2cc(C(C)(C)N)cc(-c3ccc(F)cc3)n2)C(F)(F)F)o1 (stereo not drawn) [Compound 608]
2. COc1cc(C(=O)NCC(O)(c2cc3c(c(-c4ccc(F)c(Cl)c4)n2)OCC3N)C(F)(F)F)ccc1OC1CC1 (stereo not drawn) [Compound 525]
3. CCOc1ccc(C(=O)NCC(O)(c2cc3c(c(-c4ccc(F)c(Cl)c4)n2)OCC3(C)N)C(F)(F)F)cc1OC (stereo not drawn) [Compound 498]
4. COc1cc(C(=O)NCC(O)(c2cc3c(c(-c4ccc(Cl)c(Cl)c4)n2)OCC3(C)N)C(F)(F)F)ccc1OCCO (stereo not drawn) [Compound 662]

["> 5.00", "> 6.00", "> 6.00", "> 6.00"]

Record pIC50 per entry; entries follow.
1. COc1cc(C(=O)NCC(C)(O)c2cc(C(C)(C)N)cc(-c3ccc(F)cc3)n2)ccc1OCC(N)=O (stereo not drawn) [Compound 602]
2. COc1cc(C(=O)NCC(O)(CF)c2ccc(OC)c(-c3ccc(F)c(Cl)c3)n2)ccc1OCCO (stereo not drawn) [Compound 424]
3. COc1cc(C(=O)NCC(O)(c2cc(C(C)(C)N)cc(-c3ccc(C(F)(F)F)cc3)n2)C(F)(F)F)ccc1OCCO (stereo not drawn) [Compound 658]
4. COc1cc(C(=O)NCC(O)(c2cc(CCCN)cc(-c3ccc(F)c(Cl)c3)n2)C(F)(F)F)ccc1OC1CC1 (stereo not drawn) [Compound 591]

["> 6.00", "> 6.00", "> 6.00", "> 6.00"]

Would you mind listing pIC50 for each of the following compounds?
1. COc1cc(C(=O)NCC(O)(CN(C)C)c2ccc(OC)c(-c3ccc(F)c(Cl)c3)n2)ccc1OCCO (stereo not drawn) [Compound 178]
2. COc1ccc(C(=O)NCC(O)(c2cc(C(C)(C)N)cc(-c3ccc(F)c(Cl)c3)n2)C(F)(F)F)cc1OC (stereo not drawn) [Compound 316]
3. COc1cc(C(=O)NCC(O)(c2ccc(OC)c(-c3ccc(F)c(Cl)c3)n2)C(F)(F)F)ccc1OCC(F)(F)F (stereo not drawn) [Compound 233]

> 4.00
> 6.00
> 6.00
